B1: TPR t1 (parent)
chain: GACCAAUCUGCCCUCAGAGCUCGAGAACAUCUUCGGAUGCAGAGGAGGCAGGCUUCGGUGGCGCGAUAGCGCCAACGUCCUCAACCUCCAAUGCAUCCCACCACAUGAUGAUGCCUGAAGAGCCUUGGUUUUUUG

- Variants of: B1
- assay name: polymerase ribozyme fitness, log enrichment relative to wild type (log ratio); higher = more active; in vitro selection for triplet polymerase activity
Entries and their polymerase ribozyme fitness (log ratio) values follow.
Enter the number alone.

Guide cases for polymerase ribozyme fitness (log ratio), answers given:
>>> data_value("C15U G71C C80G")
-6.22
>>> data_value("A18G C88U G113U")
-2.52
>>> data_value("A29U C124U")
-0.47

Task: I'd like to know its polymerase ribozyme fitness (log ratio). The variant in question is A50G U129G
Result: -0.967

Task: I'd like to know its polymerase ribozyme fitness (log ratio). The variant in question is G120C U129A
Result: -1.15

Task: I'd like to know its polymerase ribozyme fitness (log ratio). The variant in question is C12U C13U C79G
Result: -1.13

Task: I'd like to know its polymerase ribozyme fitness (log ratio). The variant in question is G51U G57A C76A G110U G122U
Result: -5.8

Task: I'd like to know its polymerase ribozyme fitness (log ratio). The variant in question is A26G G39A C49U C64U
Result: -3.32

Task: I'd like to know its polymerase ribozyme fitness (log ratio). The variant in question is G42A C72G C89G
Result: -3.84

Task: I'd like to know its polymerase ribozyme fitness (log ratio). The variant in question is G44A G71A A91G U116A G122A C124U
Result: -4.96

Task: I'd like to know its polymerase ribozyme fitness (log ratio). The variant in question is A37U G44A A83C G120C U130G
Result: -1.38
